These entries and their values trace back to ChEMBL document CHEMBL1201862.

Experiment: inhibitors of SNCA 5'UTR-driven reporter translation, confirmation, H4 neuroglioma cells, luminescence (AID 1988)
Format: functional, cell-based
The source made the active and inactive calls. Rule as the data show it: actives have a measured EC50 and inactives only a lower limit.

compound	EC50
O=C(N/N=C/c1ccc(Cl)cc1)c1sccc1OCc1ccc(F)cc1	< 0.1 µM (active)
COc1ccc(NC(=O)C(=O)c2cn(CC(=O)N3CCCC3)c3ccccc23)cc1	< 0.1 µM (active)
COc1cc(Br)cc(/C=N/NC(=O)Cc2ccc(C(F)(F)F)cc2[N+](=O)[O-])c1O	9.21 µM (active)
CCCN1C(=O)c2ccccc2NC1c1ccc(Cl)c(Cl)c1 (stereo unspecified)	38.8 µM (active)
Cc1nc2ccccc2c(=O)n1NC(=O)C1CCC(C(C)(C)C)CC1 (stereo unspecified)	> 120 µM (not active)
O=C1CC(c2cc(Br)ccc2F)c2cc3c(cc2N1)CCC3 (stereo unspecified)	1.48 µM (inconclusive)

* * *

The entries below are paired with their reported EC50.
Target: Protein RecA (Mycobacterium tuberculosis, UniProt P9WHJ3)
Sequence (P9WHJ3 whole entry): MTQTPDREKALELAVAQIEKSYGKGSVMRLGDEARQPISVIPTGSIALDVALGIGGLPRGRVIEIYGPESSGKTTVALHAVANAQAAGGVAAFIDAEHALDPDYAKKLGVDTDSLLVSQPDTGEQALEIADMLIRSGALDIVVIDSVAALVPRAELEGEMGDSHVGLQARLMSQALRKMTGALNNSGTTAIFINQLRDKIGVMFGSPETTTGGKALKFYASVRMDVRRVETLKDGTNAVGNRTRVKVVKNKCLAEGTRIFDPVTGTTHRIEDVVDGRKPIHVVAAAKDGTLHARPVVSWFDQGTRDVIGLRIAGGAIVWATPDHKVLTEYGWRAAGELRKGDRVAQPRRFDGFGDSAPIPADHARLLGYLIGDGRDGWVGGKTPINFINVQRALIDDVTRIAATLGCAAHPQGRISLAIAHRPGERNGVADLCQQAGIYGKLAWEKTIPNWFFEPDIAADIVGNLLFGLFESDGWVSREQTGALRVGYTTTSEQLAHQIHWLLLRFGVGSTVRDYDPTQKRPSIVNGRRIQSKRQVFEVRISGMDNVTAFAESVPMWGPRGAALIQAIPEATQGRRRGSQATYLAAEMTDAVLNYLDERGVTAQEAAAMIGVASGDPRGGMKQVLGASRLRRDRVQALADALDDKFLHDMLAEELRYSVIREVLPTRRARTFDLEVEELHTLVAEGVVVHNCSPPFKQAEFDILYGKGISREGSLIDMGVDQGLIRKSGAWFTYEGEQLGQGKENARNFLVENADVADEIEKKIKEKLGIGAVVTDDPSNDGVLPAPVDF
Test: Fluorescence Cell-Free Homogeneous Dose Retest to Identify Inhibitors of RecA-Intein Splicing Activity. [Related pubchem assays (depositor defined):AID2097, AID2223, AID489010, AID492950]
Type: functional
Calls of active or inactive are those of the source. Rule as the data show it: actives have a measured EC50 and inactives only a lower limit.
readout: EC50

compound	readout	assay result
N#CC1=C(N)Oc2[nH]nc(-c3ccccc3)c2C1c1cccc(OC(=O)N2CCOCC2)c1 (stereo not drawn)	EC50	1.19 µM (active)
O=[N+]([O-])c1cc(-c2ccc(C(=S)N3CCOCC3)o2)ccc1Cl	EC50	10.2 µM (active)
O=C(Oc1ccc(C(=S)N2CCOCC2)cc1)c1ccc([N+](=O)[O-])cc1[N+](=O)[O-]	EC50	10.6 µM (active)
COc1cccc(-c2[nH]nc3c2C(c2ccc(C)o2)C(C#N)=C(N)O3)c1 (stereo not drawn)	EC50	1.53 µM (active)
CCCC1C(C#N)=C(N)Oc2[nH]nc(C(C)(C)C)c21 (stereo not drawn)	EC50	0.504 µM (active)
CC(C)(C)c1[nH]nc2c1C(Cc1ccccc1)C(C#N)=C(N)O2 (stereo not drawn)	EC50	2.31 µM (active)
Nc1ccc(O)c2c1C(=O)c1ccccc1C2=O	EC50	39 µM (active)
COc1ccc(C2C(C#N)=C(N)Oc3[nH]nc(C)c32)cc1Cn1cc([N+](=O)[O-])cn1 (stereo not drawn)	EC50	3.11 µM (active)
N#CC(C#N)=NNc1ccc(S(=O)(=O)N2CCCCC2)cc1	EC50	9.78 µM (active)
CS(=O)(=O)c1nc(-c2ccccc2)cc(C(F)(F)F)n1	EC50	5.53 µM (active)
CC1=NN(c2ccccc2)C(=O)/C1=C/c1cccs1	EC50	4.53 µM (active)
COc1ccccc1NC(=O)c1cnc(SCC(=O)NCC2CCCO2)n(C)c1=O (stereo not drawn)	EC50	10.8 µM (active)
CC(OC(=O)c1cc(O)c2ccccc2c1O)C(=O)Nc1ccc(C(N)=O)cc1 (stereo not drawn)	EC50	4.51 µM (active)
Cc1ccc(SCc2cc(=O)n(C)[nH]2)cc1	EC50	5.29 µM (active)
O=C(Nc1ccc2nc3n(c(=O)c2c1)CCCCC3)c1c(F)ccc([N+](=O)[O-])c1F	EC50	5.17 µM (active)
CCOc1cc(C(c2c(C)n[nH]c2O)c2c(C)n[nH]c2O)cc(Cl)c1O	EC50	4.74 µM (active)
O=[N+]([O-])c1ccc(Sc2nc(O)c3ccccc3n2)c([N+](=O)[O-])c1	EC50	6.05 µM (active)
Oc1[nH]c2ccccc2c1N=NC(=S)N1CCOCC1	EC50	12.9 µM (active)
